- Study system: T1, human LTBP1-proTGFβ1 complex (human, UniProt Q14766 347-1721; P01137 30-390)
- T1 construct: Large latent complex: one presenting molecule disulfide-linked to a proTGFβ1 dimer; also called Hu LTBP1-proTGFβ1; huLTBP1 proTGFβ1
- T1 sequence (Q14766 347-1721 limits assumed, chain 1 of 2): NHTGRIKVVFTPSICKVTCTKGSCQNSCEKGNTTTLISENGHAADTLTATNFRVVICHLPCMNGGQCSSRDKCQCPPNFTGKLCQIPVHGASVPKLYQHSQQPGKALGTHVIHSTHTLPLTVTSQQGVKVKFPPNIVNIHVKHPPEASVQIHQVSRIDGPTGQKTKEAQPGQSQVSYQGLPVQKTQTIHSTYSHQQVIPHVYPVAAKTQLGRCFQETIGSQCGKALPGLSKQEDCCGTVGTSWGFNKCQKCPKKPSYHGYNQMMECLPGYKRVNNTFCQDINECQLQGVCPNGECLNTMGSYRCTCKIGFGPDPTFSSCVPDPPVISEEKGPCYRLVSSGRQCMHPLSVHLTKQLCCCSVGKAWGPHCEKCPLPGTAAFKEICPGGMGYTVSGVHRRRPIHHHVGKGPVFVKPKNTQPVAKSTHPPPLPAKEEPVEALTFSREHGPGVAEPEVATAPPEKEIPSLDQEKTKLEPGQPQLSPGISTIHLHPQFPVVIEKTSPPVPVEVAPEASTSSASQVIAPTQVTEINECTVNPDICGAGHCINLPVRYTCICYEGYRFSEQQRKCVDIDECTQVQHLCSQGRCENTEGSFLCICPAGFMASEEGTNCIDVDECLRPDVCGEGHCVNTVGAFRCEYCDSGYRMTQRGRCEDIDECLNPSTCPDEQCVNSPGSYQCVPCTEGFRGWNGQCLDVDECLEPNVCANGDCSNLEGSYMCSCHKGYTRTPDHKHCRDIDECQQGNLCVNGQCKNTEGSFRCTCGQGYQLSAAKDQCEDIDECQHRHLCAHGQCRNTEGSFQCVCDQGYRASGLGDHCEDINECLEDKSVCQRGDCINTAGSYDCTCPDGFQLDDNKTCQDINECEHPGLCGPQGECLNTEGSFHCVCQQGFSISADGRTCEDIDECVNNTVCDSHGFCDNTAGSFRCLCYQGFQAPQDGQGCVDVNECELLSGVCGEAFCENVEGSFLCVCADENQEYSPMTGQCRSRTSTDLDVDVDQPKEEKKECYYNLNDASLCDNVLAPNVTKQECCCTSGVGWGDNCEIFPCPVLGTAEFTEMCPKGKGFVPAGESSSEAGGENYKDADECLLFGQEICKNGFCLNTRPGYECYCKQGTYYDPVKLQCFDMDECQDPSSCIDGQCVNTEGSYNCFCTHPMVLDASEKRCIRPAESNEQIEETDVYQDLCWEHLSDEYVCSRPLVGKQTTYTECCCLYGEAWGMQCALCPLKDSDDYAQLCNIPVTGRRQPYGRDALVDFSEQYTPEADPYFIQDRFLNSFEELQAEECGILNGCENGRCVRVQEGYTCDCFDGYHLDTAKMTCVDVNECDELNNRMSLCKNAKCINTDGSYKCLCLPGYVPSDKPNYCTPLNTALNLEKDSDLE
- T1 sequence (P01137 30-390 limits assumed, chain 2 of 2): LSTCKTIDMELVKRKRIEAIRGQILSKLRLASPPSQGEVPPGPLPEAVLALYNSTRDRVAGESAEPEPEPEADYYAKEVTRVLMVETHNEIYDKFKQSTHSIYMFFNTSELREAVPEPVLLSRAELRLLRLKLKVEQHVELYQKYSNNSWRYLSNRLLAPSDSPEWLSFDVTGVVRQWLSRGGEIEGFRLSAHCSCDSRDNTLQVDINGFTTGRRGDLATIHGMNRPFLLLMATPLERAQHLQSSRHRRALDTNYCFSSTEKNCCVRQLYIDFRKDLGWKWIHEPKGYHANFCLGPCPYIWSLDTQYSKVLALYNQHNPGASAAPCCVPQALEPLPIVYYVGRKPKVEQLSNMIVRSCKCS
- Method: Octet BLI, IgG captured
As shown below, each of these binders has a reported kon value.
Return type: number; implicit unit M⁻¹ s⁻¹.

Solved cases below.
>  <Binder>
SR-AB37 (antibody, IgG1, V domains shown, Cycle 3, lineage SR-AB22) VH: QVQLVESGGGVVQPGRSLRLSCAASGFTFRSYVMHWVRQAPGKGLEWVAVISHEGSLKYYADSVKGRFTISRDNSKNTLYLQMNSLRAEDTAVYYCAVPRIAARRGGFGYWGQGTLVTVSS VL: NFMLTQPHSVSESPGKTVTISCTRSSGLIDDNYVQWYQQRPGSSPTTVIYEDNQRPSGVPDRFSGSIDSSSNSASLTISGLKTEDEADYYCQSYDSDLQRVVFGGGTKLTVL

>  <Test value>
360000

$$$$
>  <Binder>
SR-AB39 (antibody, IgG1, V domains shown, Cycle 3, lineage SR-AB22) VH: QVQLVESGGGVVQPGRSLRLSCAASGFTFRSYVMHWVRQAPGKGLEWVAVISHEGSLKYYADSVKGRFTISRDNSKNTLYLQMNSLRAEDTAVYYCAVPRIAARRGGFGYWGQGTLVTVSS VL: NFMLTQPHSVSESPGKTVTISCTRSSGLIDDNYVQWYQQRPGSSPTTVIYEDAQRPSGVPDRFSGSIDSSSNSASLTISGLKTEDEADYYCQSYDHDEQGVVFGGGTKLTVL

>  <Test value>
292000

$$$$

Okay, now this binder:
input: Answer with reported kon of SR-AB40 (antibody, IgG1, V domains shown, Cycle 3, lineage SR-AB23) VH: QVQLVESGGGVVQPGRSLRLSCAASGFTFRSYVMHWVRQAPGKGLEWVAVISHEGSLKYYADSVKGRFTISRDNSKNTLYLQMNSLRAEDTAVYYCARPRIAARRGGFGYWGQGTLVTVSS VL: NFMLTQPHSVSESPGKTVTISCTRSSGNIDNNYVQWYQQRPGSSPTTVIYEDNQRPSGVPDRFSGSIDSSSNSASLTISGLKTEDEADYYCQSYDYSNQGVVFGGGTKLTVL
output: 150000
